studyTarget: menin-MLL interaction (Menin MLL 4-43) (Homo sapiens)
experimentalDetails: Fluorescence polarization (FP) competition assay
Format: binding
settings: measured in accordance with Example 8; read-out: IC50 value (ability of the compound to disrupt the menin-MLL interaction)
Entries and their IC50

compound="CCC(=O)NC12CC(Cn3c(C#N)cc4c(C)c(CN5CCC(Nc6ncnc7sc(CC(F)(F)F)cc67)CC5)ccc43)(C1)C2 [Compound 3]" recordedmeasurement="≤ 50 nM"

Here is the next item to consider.
Challenge: For the compound CNc1nc(NC2CCN(Cc3ccc4c(cc(C#N)n4CC45CC(NC(C)=O)(C4)C5)c3C)CC2)c2cc(CC(F)(F)F)sc2n1 [Compound 82] , give its measured IC50 value.
Response given: ≤ 50 nM

----------
studyTarget: menin-MLL interaction (Menin MLL 4-43) (Homo sapiens)
experimentalDetails: Fluorescence polarization (FP) competition assay
Type: binding
settings: fluorescence polarization assay; read-out: Menin MLL 4-43 IC50
resultType: IC50

compound=CC(=O)NC12CC(Cn3c(C#N)cc4c(C)c(CN5CCC(Nc6nc(C)nc7sc(CC(F)(F)F)cc67)CC5)ccc43)(C1)C2 resulttype=IC50 recordedmeasurement="< 50 nM"
compound=CCC(=O)NC12CC(Cn3c(C#N)cc4c(C)c(CN5CCC(Nc6nc(NC)nc7sc(CC(F)(F)F)cc67)CC5)ccc43)(C1)C2 resulttype=IC50 recordedmeasurement="< 50 nM"
compound=CNc1nc(NC2CCN(Cc3ccc4c(cc(C#N)n4CC45CC(NC(=O)Cc6ccccc6N)(C4)C5)c3C)CC2)c2cc(CC(F)(F)F)sc2n1 resulttype=IC50 recordedmeasurement="< 50 nM"

Challenge: For the compound Cc1c(CN2CCC(Nc3ncnc4sc(CC(F)(F)F)cc34)CC2)ccc2c1cc(C#N)n2CC12CC(NC(=O)C3CCCN3)(C1)C2 (stereo not drawn) , give its measured IC50 value.
Response given: < 50 nM

Challenge: For the compound Cc1c(CN2CCC(Nc3ncnc4sc(CC(F)(F)F)cc34)CC2)ccc2c1cc(C#N)n2CC12CC(NC(=O)CNC=O)(C1)C2 , give its measured IC50 value.
Response given: 250 to 1000 nM

Challenge: For the compound Cc1c(CN2CCC(Nc3ncnc4sc(CC(F)(F)F)cc34)CC2)ccc2c1cc(C#N)n2CC12CC(NC(=O)c3cnc[nH]3)(C1)C2 , give its measured IC50 value.
Response given: 50 to 250 nM

----------
Entries and their IC50
studyTarget: menin-MLL interaction (Menin MLL 4-43) (Homo sapiens, UniProt O00255)
experimentalDetails: Fluorescence polarization (FP) competition assay
Assay type: binding
settings: fluorescence polarization assay; read-out: Menin MLL 4-43 IC50

Use these answered entries as a reference point.
structuresmiles=CCC(=O)NC12CC(Cn3c(C#N)cc4c(C)c(CN5CCC(Nc6nc(C)nc7sc(CC(F)(F)F)cc67)CC5)ccc43)(C1)C2 recordedmeasurement="50 to 250 nM"
structuresmiles=CNC(=O)NC12CC(Cn3c(C#N)cc4c(C)c(CN5CCC(Nc6ncnc7sc(CC(F)(F)F)cc67)CC5)ccc43)(C1)C2 recordedmeasurement="< 50 nM"
structuresmiles=C=CC(=O)N[C@H]1C[C@@H](Cn2c(C#N)cc3c(C)c(CN4CCC(Nc5ncnc6sc(CC(F)(F)F)cc56)CC4)ccc32)C1 recordedmeasurement="50 to 250 nM"

Challenge: For the compound Cc1c(CN2CCC(Nc3ncnc4sc(CC(F)(F)F)cc34)CC2)ccc2c1cc(C#N)n2CC12CC(NC(=O)C(C)C)(C1)C2 , give its measured IC50 value.
Response given: 50 to 250 nM

Challenge: For the compound CC(=O)N[C@H]1C[C@H](Cn2c(C#N)cc3c(C)c(CN4CCC(Nc5ncnc6sc(CC(F)(F)F)cc56)CC4)ccc32)C1 , give its measured IC50 value.
Response given: 50 to 250 nM

Challenge: For the compound COCC(=O)NC12CC(Cn3c(C#N)cc4c(C)c(CN5CCC(Nc6ncnc7sc(CC(F)(F)F)cc67)CC5)ccc43)(C1)C2 , give its measured IC50 value.
Response given: 50 to 250 nM

----------
studyTarget: menin-MLL interaction (Menin MLL 4-43) (Homo sapiens, UniProt O00255)
Sequence (O00255 1-610): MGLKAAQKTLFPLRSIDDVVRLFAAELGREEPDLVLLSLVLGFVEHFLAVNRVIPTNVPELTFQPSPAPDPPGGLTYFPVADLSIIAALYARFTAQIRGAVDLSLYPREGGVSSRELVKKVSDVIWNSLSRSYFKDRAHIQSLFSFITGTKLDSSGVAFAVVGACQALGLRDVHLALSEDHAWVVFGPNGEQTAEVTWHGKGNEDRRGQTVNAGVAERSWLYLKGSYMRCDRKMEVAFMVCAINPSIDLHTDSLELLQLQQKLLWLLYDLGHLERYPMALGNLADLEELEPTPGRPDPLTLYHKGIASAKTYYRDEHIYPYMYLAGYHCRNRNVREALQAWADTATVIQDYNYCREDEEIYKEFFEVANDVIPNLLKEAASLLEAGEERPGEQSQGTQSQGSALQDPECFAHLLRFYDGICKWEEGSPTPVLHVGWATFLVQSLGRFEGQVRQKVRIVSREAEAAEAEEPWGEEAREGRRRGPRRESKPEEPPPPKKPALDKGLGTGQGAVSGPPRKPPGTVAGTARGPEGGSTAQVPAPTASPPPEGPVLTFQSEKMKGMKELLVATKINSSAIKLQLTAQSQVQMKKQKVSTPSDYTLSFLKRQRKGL
experimentalDetails: Fluorescence polarization (FP) competition assay
Type: binding
settings: fluorescence polarization assay; read-out: Menin MLL 4-43 IC50
pIC50: −log10 of the molar value.
resultType: pIC50

Use these answered entries as a reference point.
compound="Cc1c(CN2CCC(Nc3ncnc4sc(CC(F)(F)F)cc34)CC2)ccc2c1cc(C#N)n2CC12CC(NC(=O)C(F)(F)F)(C1)C2 [Compound 6]" recordedmeasurement="6.00 to 6.60"
compound="CNc1nc(NC2CCN(Cc3ccc4c(cc(C#N)n4CC45CC(NC(=O)Cc6cccc(N)c6)(C4)C5)c3C)CC2)c2cc(CC(F)(F)F)sc2n1 [Compound 79]" recordedmeasurement="> 7.30"
compound="CNc1nc(NC2CCN(Cc3ccc4c(cc(C#N)n4CC45CC(NC(C)=O)(C4)C5)c3C)CC2)c2cc(CC(F)(F)F)sc2n1 [Compound 82]" recordedmeasurement="> 7.30"
compound="Cc1c(CN2CCC(Nc3ncnc4sc(CC(F)(F)F)cc34)CC2)ccc2c1cc(C#N)n2CC12CC(C(=O)NCCN)(C1)C2 [Compound 37]" recordedmeasurement="> 7.30"
compound="CCCCC(NC)C(=O)NC12CC(Cn3c(C#N)cc4c(C)c(CN5CCC(Nc6ncnc7sc(CC(F)(F)F)cc67)CC5)ccc43)(C1)C2 (stereo not drawn) [Compound 73]" recordedmeasurement="6.60 to 7.30"

Here is the next item to consider.
Challenge: For the compound Cc1c(CN2CCC(Nc3ncnc4sc(CC(F)(F)F)cc34)CC2)ccc2c1cc(C#N)n2CC12CC(NC(=O)CNC3CC3)(C1)C2 [Compound 42] , give its measured pIC50 value.
Response given: 6.60 to 7.30

----------
studyTarget: menin-MLL interaction (Menin MLL 4-43) (Homo sapiens, UniProt O00255)
experimentalDetails: Fluorescence polarization (FP) competition assay
Type: binding
settings: fluorescence polarization assay; read-out: Menin MLL 4-43 IC50
pIC50: −log10 of the molar value.
resultType: pIC50

Use these answered entries as a reference point.
compound="Cc1c(CN2CCC(Nc3ncnc4sc(CC(F)(F)F)cc34)CC2)ccc2c1cc(C#N)n2CC12CC(NC(=O)CN)(C1)C2 (single isomer, unassigned) [Compound 61]" studytarget="menin-MLL interaction (Menin MLL 4-43) (Homo sapiens, UniProt O00255)" resulttype=pIC50 recordedmeasurement="6.00 to 6.60"
compound=Cc1c(CN2CCC(Nc3ncnc4sc(CC(F)(F)F)cc34)CC2)ccc2c1cc(C#N)n2CC12CC(NC(=O)Cc3ccccc3)(C1)C2 studytarget="menin-MLL interaction (Menin MLL 4-43) (Homo sapiens, UniProt O00255)" resulttype=pIC50 recordedmeasurement="6.00 to 6.60"
compound=Cc1c(CN2CCC(Nc3ncnc4sc(CC(F)(F)F)cc34)CC2)ccc2c1cc(C#N)n2CC12CC(NC(=O)C3(O)CC3)(C1)C2 studytarget="menin-MLL interaction (Menin MLL 4-43) (Homo sapiens, UniProt O00255)" resulttype=pIC50 recordedmeasurement="6.60 to 7.30"

Challenge: For the compound Cc1c(CN2CCC(Nc3ncnc4sc(CC(F)(F)F)cc34)CC2)ccc2c1cc(C#N)n2CC12CC(NC(=O)CCN)(C1)C2 , give its measured pIC50 value.
Response given: > 7.30
